# assay-comment: amyloid nucleation score (Sup35N fusion, yeast selection) (log enrichment); library NNK3; higher = more nucleation; inactive = no reads after selection;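 further: zero at mode of non-aggregating sequences after 7 days selection at 30°C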
observation-type: amyloid nucleation score

1. HVVKSRSGLIMVWRPLL = -0.65
2. VGNSHASIHPCKVICSLACD = inactive
3. NSRNMVNGHLH = inactive
4. WYVFMCNGSWFLRNCRNLSY = 0.144
5. YSTPTDMLDLQFDKSASRGV = inactive
6. CFLVTVSSGTASMQVLGRSG = 1.23
7. FLNVKIQNHWRPYPFSPEYA = 1.16
8. CMIMRAFRYNVALDMHMLHD = inactive
9. GMFPVVRNGRWELRCPAVKW = inactive
10. WALWICC = 0.83
11. FANYGEKIWCFGAMLGKRLS = inactive
12. QFIDRNVWLISSGFRTRFDI = inactive
13. GKARQSLHIGSSLLTFMA = inactive
14. MMRNTDK = inactive
15. ITSCCFVTLISVMSYGPCFG = 2.45
16. NIYYLCSFLSWLTMG = 2.36
17. LSVDRL = -0.632
18. YWQPWVNLDSYRCGHNSQFP = inactive
19. GNSIALSE = inactive
20. FRRSVK = inactive
21. SSFTKLPFL = inactive
22. WFSPRDVNYSREVFKANTLT = inactive
23. ILRNRNDIQNAYCRNKY = inactive
24. TLGSAEDMYRQPRIANTDSC = -0.123
25. NLDYLVNLLCDYLES = -0.703
26. TGYHGHTPFSYDQYEFHLRV = inactive
27. QINWTGHLSMSFICFLNSRV = inactive
28. CCFHLFTYCKGKARYTLWSV = inactive
29. QQLRNWFHLDPTLARKPKFL = inactive
30. AAMKGKSTHPHKGSFSLAIA = inactive
31. GREAGVIIWVRCLYFYVFER = inactive
32. YFTNDQNKQGFHWMGYMSHI = inactive
33. ANKYASRFVYSISDLSWTIW = inactive
34. YPWVYLAGYFHFFDELVGIF = inactive
35. GCSTINALCGHLDVVVCIAG = 1.64
36. EFVSDLDTDEVGLHCFCWCP = inactive
37. LVVTYWEMRLVPADAK = inactive
38. ASYLNYSFVKIETAVSSNPC = 0.609
39. SGSAQLECASSRAYVMIVHL = 0.425
40. FTLFIQVV = inactive
41. DFDAFRFIHVVSWFGFTIYP = inactive
42. IHRNEYMMRKKDRILQNLAV = inactive
43. YSLSINCMFRYRSFSDFIDN = 0.992
44. MLTFLVYSCGTGWVCPLLRK = inactive
45. SGISCGLGLATGRKYGSGAV = inactive
46. LNDDLCSRVFWVYEYHECQV = inactive
47. KRYSIMFSKASQ = 0.986

----------
amyloid nucleation score values by entry
# assay-comment: amyloid nucleation score (Sup35N fusion, yeast selection) (log enrichment); library NNK1; higher = more nucleation; inactive = no reads after selection
observation-type: amyloid nucleation score

1) HLGSNFKISAGAINVRLSHR = 4.76
2) SGTRELALGRFHTCCNQRGK = 0.442
3) NVYAMCTITMNYSVVVTHSC = 3.35
4) VAKAPSNSCTLCHDWYGRST = 0.101
5) YYFRFCREVIARLGMDMSSK = -0.341

----------
# assay-comment: amyloid nucleation score (Sup35N fusion, yeast selection) (log enrichment); library NNK1; higher = more nucleation; inactive = no reads after selection
observation-type: amyloid nucleation score

1) VVNITYFPMVSVRLICGNVP = 6.57
2) IYYSFVGLVMCYAFPAEVWS = 1.4
3) GASRVTNYRELLMASANHDG = -0.413
4) DLIGFSWGTIEWLRA = -0.931
5) TRFNTSEDHSLDNIEA = -0.542
6) VRVFTHSSVGREE = -0.177

----------
Property: amyloid nucleation score; scope: individual sequences
# assay-comment: amyloid nucleation score (Sup35N fusion, yeast selection) (log enrichment); library NNK2; higher = more nucleation; inactive = no reads after selection
observation-type: amyloid nucleation score

1) TPLLSWVTLFCCLGSPCLGT = 0.176
2) YSNRLYFVLEAVVYL = 1.41
3) MSNMVSSMGSRMFLIICVVS = 0.68
4) LTWRYLLYPLDKFGLETWVL = 0.375
5) LKSSNRGNVRKRLLGEDEGT = 0.245
6) WMLRGRYFGTE = -1.47
7) TLTKKLHIGMLYPYHTLMLR = -0.596
8) YARTKDYVLVCLQGICAGVN = -0.14
9) VSNTEMQTVHVPAGLLPSGF = -0.27
10) VRMSQKDGKTPFQMFGHLEM = 0.039
11) YNCLRMELVLSHKGDLTLM = 5.25
12) SSCIFYFTIRTNQTYLGI = 6.93

----------
# assay-comment: amyloid nucleation score (Sup35N fusion, yeast selection) (log enrichment); library NNK3; higher = more nucleation; inactive = no reads after selection
observation-type: amyloid nucleation score

1. FFYWSWVQPEPY = inactive
2. AYIMDSSWWV = inactive
3. MSLWCTITGECKGDGWY = inactive
4. YSCLRLYATNHVTLWICELK = inactive
5. SFWCRVSHLSRDTFMDVRFM = inactive
6. VREFTFYDV = inactive
7. RTNILVGRIR = inactive
8. WIWLGCPSVMSEEYMSDFHI = inactive
9. RNYNYFINCVHWLYLVSWGL = 0.605
10. RINESRLYLSEVKYGLTCVR = inactive
11. TPKTLDWAYGYNIVSGKAIN = inactive
12. FFVLGRSTMSWLR = inactive
13. HISCMCLIYIV = 2.24
14. FRNRGLNSNMNYSSFNVQSM = -0.124
15. EMNVLCGTYKFQFGVASGVD = -0.385
16. FIVLCALLWFCLNWSDLLKF = inactive
17. HVFYIVYSFISLRNHVAYLS = inactive
18. DDSPFLGRFK = inactive
19. QFLIVGFAYLPSLA = inactive
20. FWSDFYPHVLIRWFRSMVRS = inactive
21. RPRMPVRLWWYTKLGYFKDR = inactive
22. YPYSSVTRNILCVENRCTGW = inactive
23. IRTSGSMYIISIWRWVGRTL = inactive
24. ILARYLDIYMSSVPVEWVTK = inactive
25. TNNEDKFWRVVLNLGTVTSD = inactive
26. TVMLRRTRYVVYTVYRVVDV = inactive
27. FTSNAESTLWTRPRNYRNVS = inactive
28. ALCGNHLKCYKYSGAWRAV = inactive
29. QSNEASCSGCLISKVLKNDN = inactive
30. FFEFRSASYWGPSQYRNMCT = inactive
31. FQRVCYHVWSTKN = inactive
32. ALQLRVPDDVWLYVCYSRMN = inactive
33. QFVASELYVIGFTAVWLGCI = 0.902
34. MEVLLVIYSDCERARSDTNI = inactive
35. RNSIMSSDWSHSGYGS = inactive
36. MELNLNKSSAYYKSVHFSVT = -0.053
37. GGDTPDDRVSNHCLYRHHHV = inactive
38. VFECLTFF = -0.872
39. VRDFGLPTWAQLAWMYNANG = -0.229
40. SNKECLLGIGWFASYKVIPT = inactive
41. CNLGWRNLDMVKG = inactive
42. GVHWETDEGNVVRL = inactive
43. IPFNPALLVPRGFGSFIIPA = inactive
44. NKWLDRNKG = inactive
45. KIMNSKNVLRHFSLGQWLHG = inactive
46. HIWTIRVMFWRELRLLITPI = inactive
47. GKNSCCKLIVWDEVFGLKLC = inactive

----------
Listed here: items and their measured amyloid nucleation score.
# assay-comment: amyloid nucleation score (Sup35N fusion, yeast selection) (log enrichment); library NNK1; higher = more nucleation; inactive = no reads after selection
observation-type: amyloid nucleation score

1. LQTSRHFSLRWWCMYSWGNS = 1.41
2. PVTSTIHRHPFFHVTTGDRM = -1.32
3. DDKSFQ = 0.614
4. SWMCSPRACCLLTFNFECMC = -0.635
5. DSSRTLFCRAHWGSRFNGRG = -1.69
6. CNCAGDLYAVRLYDGGCSSL = -0.006
7. IQWGEKNGCGHLGQFMWYDG = 0.193
8. RRGLCGNAKAIIRGLAQGWD = -1
9. GFRYEPNWSLSFPGV = 0.214
10. FNYVICYSLCVVFWARRWCN = 1.75
11. IWVSLDYMKSGNGNFTDSFC = 2.82
12. FIRTRLIIYLSEDGYPVA = 1.31
13. WFAGAGLIMRNVRSGW = -0.126
14. GLASVRILGRMQV = -0.106
15. MYGNES = -0.02
16. FFILSFNIRIYIFEVVTFLK = 0.555
17. ESCKSVNCLMRQGDLRVTAW = -0.122
18. ESSGRGCVPSEKIDEHGPVT = -0.319
19. GVASNYPNHLVLNSR = -0.211
20. LFTIMTLDCNFRLSGLSLAI = 0.236
21. RYHTVYGIYGRLWGWFMKFD = -0.159
22. MWYNCFMTNPGFQLSPMGSI = 0.851
23. ISLVLDFGDVYIVS = 6.2
24. HWLSAMIGVPEHGH = -0.121
25. TNYQRIQHA = -0.903
26. FSNDRCGFVAR = 0.149
27. MVWPFKRRRWHYGILALLDR = -1.22
28. SSNWLRY = 0.692
29. SFKYWNIRHKYFRTSLT = -0.152
30. LALVDAHK = -1.02
31. NQDVTPVMRVVLDSSPTLSS = 2
32. LDLMVVCFKGIRGFEKMIGG = 1.5
33. HWVGFLRYTSIKDDHQFGSK = -0.323
34. NQTNFDVSLY = 4.64
35. SDYMCTKSSIKLNTYIDVKD = -1.6
36. MEWDAYVMI = 0.442
37. LVGMCNHTYDS = 0.998
38. FRNSLSYIVLSCLAMFFNDG = 0.967
39. FAWGREVRLEIEY = 0.371
40. NLQSCLVYKVSVGNLPLIYL = -0.45
41. QGLADNKSSFKGV = 0.591
42. TLCPLDFHRDTARELCPRGV = 0.049
43. GRMTILSVNSS = 0.328
44. STVLATFHVE = 0.041
45. VQAKYNSSLGESNRDSDCAS = 0.187
46. SKKIVGIFYKVCSRRLFMVC = 0.456
47. IIWIRAVPLMTRNEGVCECG = -0.982
48. ISGTRLVLGLDDSR = 0.069
49. NSFVTVFLRWKYFVMSDMWP = -0.139
50. AQFSTKPQQRIP = 1.51
51. YTLMLCNVASVDSWI = 5.05
52. LLICADVITFCFECTMRTGF = 4.13
53. MGLSNSDADGRTLRNEHVKS = -1.35
54. RFQVPLCIPLINC = 0.886
55. GSSKNFH = 0.972
